- ASSAY_NAME: cAMP Responsive Elements (CRE) small molecule antagonists, cell-based qHTS assay (AID 1963591); also: % is scaled to controls: 0 for no effect and ±100 for the full control effect
- REPORTED_CONDITIONS: CRE-bla HEK293T, beta-lactamase FRET ratio; series mostly up to 92.4 µM
Results filed as inconclusive are left out. Active and inactive are the calls of the source. Calls follow the shape of the dose curve; as a rule, active = well fitted inhibition curve with a large enough effect in the signal ratio in the repeat runs (not every such curve was filed as active); inconclusive = weak or mixed curves, or effect the other way; inactive = flat fitted curve, though single readings scatter; the % refers to the signal ratio.
REPORTED_METRIC: activity change, negative = inhibition

Field: example entries. Status: answers known.
| MOLECULE | activity change, negative = inhibition |
| --- | --- |
| CC1(C)S[C@@H]2[C@H](N=CN3CCCCCC3)C(=O)N2[C@H]1C(=O)O | inactive |
| O=NN(CCCl)C(=O)NCCCl | inactive |
| CN(C)CCc1c[nH]c2ccc(CS(=O)(=O)N3CCCC3)cc12 | inactive |
| O=C(O)c1ccncc1 | inactive |
| CC(C)(C)c1cc(CCC(=O)NN)cc(C(C)(C)C)c1O | inactive |
| CCc1ccc(O)c(OC)c1 | inactive |
| O=C(CO)[C@@H](O)[C@H](O)[C@@H](O)CO | inactive |
| CC/C(=C\C(=N/O)C(N)=O)C(C)[N+](=O)[O-] (configuration not stated) | inactive |

Task: State the recorded activity change, negative = inhibition for this entry: CC(C)NCC(O)c1ccc(NS(C)(=O)=O)cc1 (configuration not stated)
Output: inactive

Task: State the recorded activity change, negative = inhibition for this entry: Nc1c2c(nc3ccccc13)CCCC2O (configuration not stated)
Output: inactive

Task: State the recorded activity change, negative = inhibition for this entry: "C[C@@H]1CN(c2c(F)c(N)c3c(=O)c(C(=O)O)cn(C4CC4)c3c2F)C[C@H](C)N1"
Output: -4.06% [at 18.9 µM] (inactive)

Task: State the recorded activity change, negative = inhibition for this entry: "Nc1ccc(S(=O)(=O)Nc2ccnn2-c2ccccc2)cc1"
Output: 0.401% [at 18.9 µM] (inactive)
